systemName: Phosphodiesterase 1 (Homo sapiens, UniProt P54750+Q01064+Q14123)
experiment: Inhibitory activity against phosphodiesterase-1 (PDE1) isolated from canine lung
Type: protein assay, Canis lupus familiaris
studyConditions: target entry is the homologue from another species
Quick rule for you: IC50 under 30 µM gets condition met, anything else gets condition not met.

Recorded results for 5 compounds are shown here.
chemSmiles	categoryLabel
COC(=O)c1c(-c2cc(OC)c(OC)c(OC)c2)c2ccc(OCc3ccccn3)nc2c(=O)n1Cc1cccnc1.Cl	condition met
COC(=O)c1c(-c2cc(OC)c(OC)c(OC)c2)c2ccnc(OCc3ccccn3)c2c(=O)n1Cc1ccnc(C)c1	condition met
COC(=O)c1c(-c2cc(OC)c(OC)c(OC)c2)c2ccnc(N3CCN(C)CC3)c2c(=O)n1Cc1ccnc(C)c1	condition not met
COC(=O)c1c(-c2cc(OC)c(OC)c(OC)c2)c2ccc(OCc3ccccn3)cc2c(=O)n1-c1ccc(N)cc1.O=S(=O)(O)O	condition met
COC(=O)c1c(-c2cc(OC)c(OC)c(OC)c2)c2ccnc(OCc3ncccn3)c2c(=O)n1Cc1ccnc(C)c1.Cl	condition not met

-- ask Input COC(=O)c1c(-c2cc(OC)c(OC)c(OC)c2)c2ccc(OCc3ccccn3)nc2c(=O)n1Cc1ccnc(C)c1.Cl ; condition: IC50 strictly below 30 µM. Does it hold?
-- reply condition not met

-- ask In the record for COC(=O)c1c(-c2cc(OC)c(OC)c(OC)c2)c2ccc(OCc3ncccn3)nc2c(=O)n1Cc1ccnc(C)c1.Cl , is IC50 less than 30 µM?
-- reply condition not met

-- ask Is it true that IC50 reported for COC(=O)c1c(-c2cc(OC)c(OC)c(OC)c2)c2ccc(OCc3ccccn3)nc2c(=O)n1Cc1ccncc1.Cl is less than 30 µM?
-- reply condition not met

* * *

systemName: cGMP-specific 3',5'-cyclic phosphodiesterase (Canis lupus familiaris)
experiment: Inhibitory activity against phosphodiesterase 5 (PDE5) isolated from canine lung
quantityMeasured: pIC50
Please note pIC50 is a logarithmic value: minus log10 of concentration in mol/L. Answer with that number alone.

-- ask Look up and report pIC50, with cGMP-specific 3',5'-cyclic phosphodiesterase (Canis lupus familiaris) as system, for COC(=O)c1c(-c2cc(OC)c(OC)c(OC)c2)c2ccc(OCc3ccccn3)nc2c(=O)n1-c1ccc(N)cc1.Cl
-- reply 9.29

-- ask Provide measured pIC50 on cGMP-specific 3',5'-cyclic phosphodiesterase (Canis lupus familiaris) for COC(=O)c1c(-c2cc(OC)c(OC)c(OC)c2)c2ccc(OCc3ccccn3)nc2c(=O)n1Cc1ccncc1.Cl please.
-- reply 9.42

-- ask Using cGMP-specific 3',5'-cyclic phosphodiesterase (Canis lupus familiaris) as the test system, report measured pIC50 of COC(=O)c1c(-c2cc(OC)c(OC)c(OC)c2)c2ccc(OCc3ccccn3)nc2c(=O)n1Cc1ccccn1.Cl .
-- reply 7.96

-- ask GET pIC50 where system = cGMP-specific 3',5'-cyclic phosphodiesterase (Canis lupus familiaris) and item = COC(=O)c1c(-c2cc(OC)c(OC)c(OC)c2)c2ccc(OCCc3ccccn3)nc2c(=O)n1Cc1ccnc(C)c1
-- reply 8.92

-- ask Fetch value of pIC50 on cGMP-specific 3',5'-cyclic phosphodiesterase (Canis lupus familiaris) for COC(=O)c1c(-c2cc(OC)c(OC)c(OC)c2)c2ccc(OCc3ncccn3)nc2c(=O)n1Cc1ccnc(C)c1.Cl .
-- reply 8.72

-- ask GET pIC50 | system: cGMP-specific 3',5'-cyclic phosphodiesterase (Canis lupus familiaris) | item: COC(=O)c1c(-c2cc(OC)c(OC)c(OC)c2)c2ccc(NCc3ccccn3)nc2c(=O)n1Cc1ccnc(C)c1.Cl
-- reply 8.74

* * *

systemName: cGMP-dependent 3',5'-cyclic phosphodiesterase (Bos taurus)
Sequence (P14099 whole entry): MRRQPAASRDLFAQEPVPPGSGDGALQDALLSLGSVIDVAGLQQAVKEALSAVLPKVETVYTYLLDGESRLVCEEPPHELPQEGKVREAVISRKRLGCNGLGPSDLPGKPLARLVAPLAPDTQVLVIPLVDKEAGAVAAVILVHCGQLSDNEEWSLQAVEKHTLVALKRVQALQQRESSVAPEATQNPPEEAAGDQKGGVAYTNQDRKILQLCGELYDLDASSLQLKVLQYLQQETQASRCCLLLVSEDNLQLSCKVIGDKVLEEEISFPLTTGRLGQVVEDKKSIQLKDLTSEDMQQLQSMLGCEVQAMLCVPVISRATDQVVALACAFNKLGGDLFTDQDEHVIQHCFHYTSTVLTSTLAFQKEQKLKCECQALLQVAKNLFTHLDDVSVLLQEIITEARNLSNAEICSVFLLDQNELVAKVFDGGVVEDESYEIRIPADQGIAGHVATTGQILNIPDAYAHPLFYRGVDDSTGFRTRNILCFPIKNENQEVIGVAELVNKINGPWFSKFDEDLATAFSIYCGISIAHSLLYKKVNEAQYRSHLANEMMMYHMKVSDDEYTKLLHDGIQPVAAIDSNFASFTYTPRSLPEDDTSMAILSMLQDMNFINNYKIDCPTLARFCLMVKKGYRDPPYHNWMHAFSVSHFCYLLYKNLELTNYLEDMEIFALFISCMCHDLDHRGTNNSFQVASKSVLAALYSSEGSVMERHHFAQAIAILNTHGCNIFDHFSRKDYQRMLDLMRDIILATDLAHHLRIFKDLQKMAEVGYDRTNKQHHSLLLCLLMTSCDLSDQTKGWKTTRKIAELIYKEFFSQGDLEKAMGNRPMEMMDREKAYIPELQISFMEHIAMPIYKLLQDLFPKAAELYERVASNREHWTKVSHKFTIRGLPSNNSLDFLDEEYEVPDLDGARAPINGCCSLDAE
experiment: Inhibitory activity against phosphodiesterase-2 (PDE2) isolated from bovine adrenal gland
quantityMeasured: IC50

Some compounds with recorded IC50:
chemSmiles	IC50
CCCc1nn(C)c2c(=O)[nH]c(-c3cc(S(=O)(=O)N4CCN(C)CC4)ccc3OCC)nc12	43 µM
COC(=O)c1c(-c2cc(OC)c(OC)c(OC)c2)c2ccnc(OCc3ncccn3)c2c(=O)n1Cc1ccnc(C)c1.Cl	> 100 µM

Now consider a different compound.
-- ask Output reported IC50 of the compound COC(=O)c1c(-c2cc(OC)c(OC)c(OC)c2)c2ccnc(OCCc3ccccn3)c2c(=O)n1Cc1ccnc(C)c1.Cl on cGMP-dependent 3',5'-cyclic phosphodiesterase (Bos taurus).
-- reply > 100 µM

Reference source for all entries: ChEMBL document CHEMBL1136105
